biological target: Peptidyl-prolyl cis-trans isomerase A (Homo sapiens, UniProt P62937)
Sequence (P62937 whole entry): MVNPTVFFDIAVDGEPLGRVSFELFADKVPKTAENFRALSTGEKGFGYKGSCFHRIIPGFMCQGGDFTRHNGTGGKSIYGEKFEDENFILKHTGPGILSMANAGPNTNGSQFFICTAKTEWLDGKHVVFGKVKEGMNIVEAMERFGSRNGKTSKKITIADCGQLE
ASSAY ENDPOINT: pIC50
Scale: negative log10 of molar concentration, which is what pIC50 denotes.

molecule COC(=O)c1cc(NC(=O)c2ccc3nc(-c4ccco4)c(-c4ccco4)nc3c2)ccc1NCc1ccccc1 , pIC50 observed: 6.60

====

biological target: Peptidyl-prolyl cis-trans isomerase A (Homo sapiens, UniProt P62937)
ASSAY ENDPOINT: pKd
Reminder that pKd is minus the log10 of a molar concentration.

>>> print(df.to_string())
                                test_smiles                       experimental_system  measured_value
0  COC(=O)c1cc(C(=O)Nc2cc(-c3cccc(Cl)c3)nc3ccccc23)ccc1NCc1ccccc1  Peptidyl-prolyl cis-trans isomerase A (Homo sapiens, UniProt P62937)            5.09
1  O=C(Nc1ccc(S(=O)(=O)Nc2ncccn2)cc1)c1ccc2nc(-c3ccco3)c(-c3ccco3)nc2c1  Peptidyl-prolyl cis-trans isomerase A (Homo sapiens, UniProt P62937)            4.64
2  CC(C)(C)NC(=O)[C@@H]1Cc2ccccc2CN1Cc1cc(-c2cccc(Cl)c2)nc2ccccc12  Peptidyl-prolyl cis-trans isomerase A (Homo sapiens, UniProt P62937)            4.61
3  CCOC(=O)[C@H]1CCCN(C(=O)Nc2cc(-c3cccc(Cl)c3)nc3ccccc23)C1  Peptidyl-prolyl cis-trans isomerase A (Homo sapiens, UniProt P62937)            4.54
4  c1ccc2cc(-c3cc(CN4CCCCC4)c4ccccc4n3)ccc2c1  Peptidyl-prolyl cis-trans isomerase A (Homo sapiens, UniProt P62937)            6.67

Assay Peptidyl-prolyl cis-trans isomerase A (Homo sapiens, UniProt P62937), sample CCOC(=O)[C@@H]1CCCN(Cc2cc(-c3ccc4ccccc4c3)nc3ccccc23)C1 , pKd read: 4.76

The reported Peptidyl-prolyl cis-trans isomerase A (Homo sapiens, UniProt P62937) pKd of Cc1ccnc(NS(=O)(=O)c2ccc(NC(=O)c3ccc4nc(-c5ccco5)c(-c5ccco5)nc4c3)cc2)n1 is 4.39

Log: Peptidyl-prolyl cis-trans isomerase A (Homo sapiens, UniProt P62937), compound CC(C)(C)NC(=O)[C@@H]1Cc2ccccc2CN1Cc1cc(-c2ccc3ccccc3c2)nc2ccccc12 , pKd = 5.51
